# Test Target: Cellular tumor antigen p53 (Homo sapiens) (UniProt P04637)
# Sequence (P04637 whole entry, looked up): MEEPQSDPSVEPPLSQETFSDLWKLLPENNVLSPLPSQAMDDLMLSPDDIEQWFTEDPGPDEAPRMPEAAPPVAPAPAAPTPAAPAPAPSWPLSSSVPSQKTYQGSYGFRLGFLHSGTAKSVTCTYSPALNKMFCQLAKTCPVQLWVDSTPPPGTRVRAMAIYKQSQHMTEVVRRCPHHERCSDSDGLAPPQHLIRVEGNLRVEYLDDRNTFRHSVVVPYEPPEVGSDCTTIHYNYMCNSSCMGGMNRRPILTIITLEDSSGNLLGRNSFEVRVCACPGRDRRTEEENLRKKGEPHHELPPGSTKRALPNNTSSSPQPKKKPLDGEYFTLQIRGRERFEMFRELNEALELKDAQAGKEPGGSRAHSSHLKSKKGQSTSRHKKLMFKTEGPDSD
# Procedure Details: TOX21_p53_BLA_p5_ratio: Tox21 HCT-116 p53 Agonism Beta-lactamase Assay, Ratio, Phase 5 (AID 2283599)
Records with an inconclusive call do not appear. The source made the active and inactive calls. The calls were made as follows: active = hit-call score of the fitted dose curve at least 0.9, where 1 is the maximum; inconclusive = response in the unintended direction; inactive = score below 0.9.
Outcomes: 1 = active, 0 = inactive

In [3]: df
Out[3]:
                                    molecule  assigned_label
 0             COP(=S)(OC)SCn1nnc2ccccc2c1=O               0
 1             CC(C)N1C(=O)c2ccccc2NS1(=O)=O               0
 2  COC(=O)N(C(=O)N1CO[C@@]2(C(=O)OC)Cc3cc(Cl)ccc3C2=N1)c1ccc(OC(F)(F)F)cc1               0
 3  CS(=O)(=O)c1ccc(C(=O)C2C(=O)CCCC2=O)c([N+](=O)[O-])c1               0
 4                   Clc1cccc(C(Cl)(Cl)Cl)n1               0
 5                             O=P(O)(O)CCCl               0
 6  CCOc1nc(F)cc2nc(S(=O)(=O)Nc3c(Cl)cccc3Cl)nn12               0
 7  CCCCC(O)(Cn1cncn1)c1ccc(Cl)cc1Cl (configuration not stated)               1
 8                 N#CN=C1SCCN1Cc1ccc(Cl)nc1               0
 9          CCN(CC)c1nc(C)cc(OP(=S)(OC)OC)n1               0
10            COP(=O)(OC)O/C(C)=C/C(=O)N(C)C               0
11                   Cc1cc(C)nc(Nc2ccccc2)n1               0

----------
# Procedure Details: CCTE_Deisenroth_AIME_384WELL_CTox_Inactive: Cytotoxicity Assessment (CTOX) in CCTE's 384-well Estrogen Receptor Transactivation Assay without AIME metabolic competence (metabolism negative), Deisenroth Lab (AID 2284039);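 also: cell viability via live-cell protease substrate cleaved to fluorescent probe; cells exposed 24 h to medium preincubated 2 h with alginate-water beads without S9; loss of fluorescence signal means loss of viability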
Records with an inconclusive call do not appear. Activity calls are given as the source filed them. The calls were made as follows: active = hit-call score of the fitted dose curve at least 0.9, where 1 is the maximum; inconclusive = response in the unintended direction; inactive = score below 0.9.
Outcomes: active, inactive

In [3]: df
Out[3]:
                                   molecule  assigned_label
0     COP(=S)(OC)Oc1ccc([N+](=O)[O-])c(C)c1        inactive
1  CC(C)=CC1C(C(=O)OCc2coc(Cc3ccccc3)c2)C1(C)C (stereo not drawn)        inactive
2               Nc1c(Cl)c(Cl)nc(C(=O)O)c1Cl        inactive
3    CC(C)Oc1cccc(NC(=O)c2ccccc2C(F)(F)F)c1        inactive
4  COc1cc(OC)nc(NC(=O)NS(=O)(=O)c2ncccc2OCC(F)(F)F)n1        inactive
5  CCOc1nc(F)cc2nc(S(=O)(=O)Nc3c(Cl)cccc3Cl)nn12          active
6             COP(=S)(OC)SCn1nnc2ccccc2c1=O          active
7        COc1ccc(-c2ccccc2)cc1NNC(=O)OC(C)C          active

----------
# Read-out: adenosine kinase (ADK) gene, ADK (gene 132)
# Procedure Details: LTEA_HepaRG_ADK: Life Technologies and Expression Analysis (LTEA) Assay for adenosine kinase (ADK) gene using HepaRG (AID 2283471)
# Protocol Conditions: mRNA level, 48 h; actives raise or lower the signal
# Protocol: LTEA_HepaRG is a cell based, multiplexed-readout assay that uses HepaRG, a human liver cell line, with measurements taken at 48 hours after chemical dosing on a 96-well plate.LTEA_HepaRG_ADK is one of 102 assay component(s) measured in the LTEA HepaRG cell culture assay. It is a marker of Steatosis.Data from the assay component LTEA_HepaRG_ADK was analyzed into 1 endpoint. […]
Active and inactive are the calls of the source. How the source made its calls: active means hit-call score of the fitted dose curve at least 0.9, where 1 is the maximum; inactive means score below 0.9.
Outcomes: T for active, F for inactive

In [3]: df
Out[3]:
                                    compound  assigned_label
 0  CCOC(=O)C(C)OC(=O)c1cc(Oc2ccc(C(F)(F)F)cc2Cl)ccc1[N+](=O)[O-] (configuration not stated)               F
 1                   Clc1cccc(C(Cl)(Cl)Cl)n1               F
 2  CSC(=O)c1c(C(F)F)nc(C(F)(F)F)c(C(=O)SC)c1CC(C)C               F
 3  OC(c1ccc(Cl)cc1)(c1ccc(Cl)cc1)C(Cl)(Cl)Cl               T
 4              O=C(O)c1c(Cl)ccc2cc(Cl)cnc12               F
 5          CCN(CC)c1nc(C)cc(OP(=S)(OC)OC)n1               F
 6                    CNC(=O)Oc1cccc2ccccc12               F
 7             COP(=S)(OC)SCn1nnc2ccccc2c1=O               F
 8                   Cc1cc(C)nc(Nc2ccccc2)n1               F
 9  CC1(C)C(C=C(Cl)Cl)C1C(=O)OC(C#N)c1cccc(Oc2ccccc2)c1 (configuration not stated)               F
10  CS(=O)(=O)c1cc(C(F)(F)F)ccc1C(=O)c1cnoc1C1CC1               F
11  COCc1cnc(C2=NC(C)(C(C)C)C(=O)N2)c(C(=O)O)c1 (configuration not stated)               F

----------
# Test Target: Estrogen receptor (Homo sapiens) + Estrogen receptor beta (Homo sapiens) (UniProt P03372+Q92731)
# Sequence (P03372 whole entry, looked up, the tested form may be a part): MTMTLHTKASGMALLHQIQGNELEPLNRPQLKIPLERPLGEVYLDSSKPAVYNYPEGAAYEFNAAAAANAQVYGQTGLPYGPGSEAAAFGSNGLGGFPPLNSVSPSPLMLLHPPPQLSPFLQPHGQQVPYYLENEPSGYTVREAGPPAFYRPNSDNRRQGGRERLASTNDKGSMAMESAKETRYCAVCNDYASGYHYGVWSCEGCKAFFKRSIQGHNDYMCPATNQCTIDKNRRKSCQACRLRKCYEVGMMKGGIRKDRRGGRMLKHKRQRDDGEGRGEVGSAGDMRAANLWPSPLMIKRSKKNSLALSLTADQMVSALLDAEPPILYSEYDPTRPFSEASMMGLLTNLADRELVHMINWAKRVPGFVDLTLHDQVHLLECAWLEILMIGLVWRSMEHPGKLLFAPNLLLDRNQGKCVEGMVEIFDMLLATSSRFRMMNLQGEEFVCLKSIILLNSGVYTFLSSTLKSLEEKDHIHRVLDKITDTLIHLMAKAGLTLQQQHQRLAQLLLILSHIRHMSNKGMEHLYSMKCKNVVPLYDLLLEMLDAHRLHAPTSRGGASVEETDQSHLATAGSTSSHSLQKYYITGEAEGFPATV
# Sequence (Q92731 whole entry, looked up, the tested form may be a part): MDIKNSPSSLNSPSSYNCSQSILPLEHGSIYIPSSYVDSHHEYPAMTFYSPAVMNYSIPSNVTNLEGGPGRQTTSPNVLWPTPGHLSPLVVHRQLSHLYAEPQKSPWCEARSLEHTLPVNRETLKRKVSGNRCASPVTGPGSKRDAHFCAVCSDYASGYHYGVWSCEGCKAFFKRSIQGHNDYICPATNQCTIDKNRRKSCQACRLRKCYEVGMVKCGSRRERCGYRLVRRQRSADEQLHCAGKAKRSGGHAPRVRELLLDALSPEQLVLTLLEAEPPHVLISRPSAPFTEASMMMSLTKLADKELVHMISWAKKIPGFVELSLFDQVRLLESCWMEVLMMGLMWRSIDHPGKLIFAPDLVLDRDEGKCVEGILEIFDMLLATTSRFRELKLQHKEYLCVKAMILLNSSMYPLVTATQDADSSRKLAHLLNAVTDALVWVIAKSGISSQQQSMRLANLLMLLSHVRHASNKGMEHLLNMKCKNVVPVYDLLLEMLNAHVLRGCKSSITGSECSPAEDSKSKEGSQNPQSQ
# Procedure Details: OT_ER_ERaERb_1440: Odyssey Thera (OT) 24-hour HEK293T Protein-Complementation Assay for Estrogen Receptor-alpha/-beta Homodimer (AID 2283356);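 also: heteromer of ER alpha and ER beta binding domains; hits raise reporter fluorescence and both agonists and antagonists give an increase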
Inconclusive results are not listed. Activity calls are given as the source filed them. How the source made its calls: active means hit-call score of the fitted dose curve at least 0.9, where 1 is the maximum; inconclusive means response in the unintended direction; inactive means score below 0.9.
Outcomes: active, inactive

In [3]: df
Out[3]:
                                    compound  assigned_label
 0  CCC(C)n1c(=O)[nH]c(C)c(Br)c1=O (stereo not given)        inactive
 1        COc1ccc(-c2ccccc2)cc1NNC(=O)OC(C)C        inactive
 2           CCCCOCN(C(=O)CCl)c1c(CC)cccc1CC        inactive
 3  Cc1cnc(C2=NC(C)(C(C)C)C(=O)N2)c(C(=O)O)c1 (stereo not given)        inactive
 4  COC(=O)c1c(C(F)F)nc(C(F)(F)F)c(C2=NCCS2)c1CC(C)C        inactive
 5  CC(C)(C)C(=O)C(Oc1ccc(Cl)cc1)n1cncn1 (stereo not given)          active
 6                      COc1cc(Cl)c(OC)cc1Cl        inactive
 7  CCOc1nc(F)cc2nc(S(=O)(=O)Nc3c(Cl)cccc3Cl)nn12        inactive
 8  CS(=O)(=O)c1cc(C(F)(F)F)ccc1C(=O)c1cnoc1C1CC1        inactive
 9  O=C1C2CC=CCC2C(=O)N1SC(Cl)(Cl)Cl (stereo not given)        inactive
10        CN/C(=N\[N+](=O)[O-])NCc1cnc(Cl)s1        inactive
11  CCOC(=O)C(C)OC(=O)c1cc(Oc2ccc(C(F)(F)F)cc2Cl)ccc1[N+](=O)[O-] (stereo not given)        inactive
12  C=C(C)CN(CC)c1c([N+](=O)[O-])cc(C(F)(F)F)cc1[N+](=O)[O-]          active
13                Nc1cnn(-c2ccccc2)c(=O)c1Cl        inactive
14      COC(=O)NC(=S)Nc1ccccc1NC(=S)NC(=O)OC        inactive
15             COP(=S)(OC)SCn1nnc2ccccc2c1=O        inactive
16  Cc1c(COC(=O)[C@@H]2[C@H](/C=C(\Cl)C(F)(F)F)C2(C)C)cccc1-c1ccccc1          active
17               Clc1nc(Cl)nc(Nc2ccccc2Cl)n1        inactive
18  COCC(=O)N(c1c(C)cccc1C)C(C)C(=O)OC (stereo not given)        inactive
19     CC(C)N1C(=O)N(c2ccccc2)CSC1=NC(C)(C)C        inactive

----------
# Procedure Details: BSK_3C_Proliferation: Cell Proliferation Assessment in the BioMAP Diversity Plus: 3C Assay (AID 2283006)
# Protocol Conditions: primary human endothelial cells (HUVEC)
Active and inactive are the calls of the source. Rule for the calls: active = hit-call score of the fitted dose curve at least 0.9, where 1 is the maximum; inactive = score below 0.9.
Outcomes: 1 (yes) for active, 0 (no) for inactive

>>> print(df.to_string())
                                    molecule  assigned_label
 0  COCC(=O)N(c1c(C)cccc1C)C(C)C(=O)OC (stereo not drawn)          0 (no)
 1            Cc1nc(N(C)C)nc(OC(=O)N(C)C)c1C          0 (no)
 2                Nc1cnn(-c2ccccc2)c(=O)c1Cl          0 (no)
 3      Cc1ccc(N=CN(C)C=Nc2ccc(C)cc2C)c(C)c1         1 (yes)
 4                CC(C)Nc1nc(Cl)nc(NC(C)C)n1          0 (no)
 5                   Clc1cccc(C(Cl)(Cl)Cl)n1          0 (no)
 6  CC1(C)C(C(=O)OC(C#N)c2cccc(Oc3ccccc3)c2)C1(C)C (stereo not drawn)         1 (yes)
 7  CCCCC(O)(Cn1cncn1)c1ccc(Cl)cc1Cl (stereo not drawn)         1 (yes)
 8  CCC(C)n1c(=O)[nH]c(C)c(Br)c1=O (stereo not drawn)          0 (no)
 9  CO/N=C(/C1=NOCCO1)c1ccccc1Oc1ncnc(Oc2ccccc2Cl)c1F         1 (yes)
10  CCOc1cc(C(C)(C)C)ccc1C1COC(c2c(F)cccc2F)=N1 (stereo not drawn)         1 (yes)
11     COP(=S)(OC)Oc1ccc([N+](=O)[O-])c(C)c1         1 (yes)
12            COP(=O)(OC)O/C(C)=C/C(=O)N(C)C          0 (no)
13  CC(C)=CC1C(C(=O)OCc2coc(Cc3ccccc3)c2)C1(C)C (stereo not drawn)         1 (yes)
14  OC(c1ccc(Cl)cc1)(c1ccc(Cl)cc1)C(Cl)(Cl)Cl         1 (yes)
15  COC(=O)c1c(C(F)F)nc(C(F)(F)F)c(C2=NCCS2)c1CC(C)C         1 (yes)
16                             O=P(O)(O)CCCl          0 (no)
17               Clc1nc(Cl)nc(Nc2ccccc2Cl)n1          0 (no)
